- study-system: recombinant human PAD2 (human, UniProt Q9Y2J8 1-665)
- Sequence (Q9Y2J8 whole entry): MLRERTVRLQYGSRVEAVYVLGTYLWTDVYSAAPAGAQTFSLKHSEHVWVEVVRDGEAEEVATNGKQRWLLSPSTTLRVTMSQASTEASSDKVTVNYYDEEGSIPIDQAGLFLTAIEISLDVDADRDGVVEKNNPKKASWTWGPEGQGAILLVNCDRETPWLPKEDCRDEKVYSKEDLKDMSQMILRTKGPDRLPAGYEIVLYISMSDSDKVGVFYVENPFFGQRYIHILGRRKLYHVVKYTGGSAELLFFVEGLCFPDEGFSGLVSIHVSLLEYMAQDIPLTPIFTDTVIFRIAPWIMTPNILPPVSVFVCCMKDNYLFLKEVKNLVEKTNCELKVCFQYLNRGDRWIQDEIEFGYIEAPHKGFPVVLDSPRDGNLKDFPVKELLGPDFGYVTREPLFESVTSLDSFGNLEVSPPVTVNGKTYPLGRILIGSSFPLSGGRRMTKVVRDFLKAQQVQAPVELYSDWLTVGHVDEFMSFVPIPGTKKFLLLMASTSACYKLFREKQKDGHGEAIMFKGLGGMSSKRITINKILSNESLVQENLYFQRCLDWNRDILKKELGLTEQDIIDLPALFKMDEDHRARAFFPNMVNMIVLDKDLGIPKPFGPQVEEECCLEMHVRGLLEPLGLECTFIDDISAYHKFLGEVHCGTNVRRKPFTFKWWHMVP
- test-description: cell-based or functional assay
Numbered stars: 1 amine (or outer) side, 2 acyl side, 3 side chain; on linkers, the order of the positions; unused ones are H or OH. Square brackets hold non-standard residues; d marks the D form. Orn(CA) = ornithine chloroamidine, O(CA), N=C(CCl)NCCC[C@H](N[*:1])C(=O)[*:2]
measure-name: conversion of 0708-30 by PAD2, 50 µM inhibitor (%)
Kindly answer with a numeric value in %, unit omitted.

Some binders with known conversion of 0708-30 by PAD2, 50 µM inhibitor results, for comparison:
{"binder": "Ac-FFDSHKFD[Orn(CA)]DFIYSD-NH2 (SMILES CC[C@H](C)[C@H](NC(=O)[C@H](Cc1ccccc1)NC(=O)[C@H](CC(=O)O)NC(=O)[C@H](CCCNC(=N)CCl)NC(=O)[C@H](CC(=O)O)NC(=O)[C@H](Cc1ccccc1)NC(=O)[C@H](CCCCN)NC(=O)[C@H](Cc1c[nH]cn1)NC(=O)[C@H](CO)NC(=O)[C@H](CC(=O)O)NC(=O)[C@H](Cc1ccccc1)NC(=O)[C@H](Cc1ccccc1)NC(C)=O)C(=O)N[C@@H](Cc1ccc(O)cc1)C(=O)N[C@@H](CO)C(=O)N[C@@H](CC(=O)O)C(N)=O) [0741-03CA]", "data-value": 49}
{"binder": "Ac-DSHKFD[Orn(CA)]DFIYSD-NH2 (SMILES CC[C@H](C)[C@H](NC(=O)[C@H](Cc1ccccc1)NC(=O)[C@H](CC(=O)O)NC(=O)[C@H](CCCNC(=N)CCl)NC(=O)[C@H](CC(=O)O)NC(=O)[C@H](Cc1ccccc1)NC(=O)[C@H](CCCCN)NC(=O)[C@H](Cc1c[nH]cn1)NC(=O)[C@H](CO)NC(=O)[C@H](CC(=O)O)NC(C)=O)C(=O)N[C@@H](Cc1ccc(O)cc1)C(=O)N[C@@H](CO)C(=O)N[C@@H](CC(=O)O)C(N)=O) [0741-05CA]", "data-value": 44}
{"binder": "Ac-FFDSKHFD[Orn(CA)]EWIWSD-NH2 (SMILES CC[C@H](C)[C@H](NC(=O)[C@H](Cc1c[nH]c2ccccc12)NC(=O)[C@H](CCC(=O)O)NC(=O)[C@H](CCCNC(=N)CCl)NC(=O)[C@H](CC(=O)O)NC(=O)[C@H](Cc1ccccc1)NC(=O)[C@H](Cc1c[nH]cn1)NC(=O)[C@H](CCCCN)NC(=O)[C@H](CO)NC(=O)[C@H](CC(=O)O)NC(=O)[C@H](Cc1ccccc1)NC(=O)[C@H](Cc1ccccc1)NC(C)=O)C(=O)N[C@@H](Cc1c[nH]c2ccccc12)C(=O)N[C@@H](CO)C(=O)N[C@@H](CC(=O)O)C(N)=O) [0741-01CA]", "data-value": 38}

Now look at this entry.
## Input For the binder Ac-FFDSHKWH[Orn(CA)]DFFYSD-NH2 (SMILES CC(=O)N[C@@H](Cc1ccccc1)C(=O)N[C@@H](Cc1ccccc1)C(=O)N[C@@H](CC(=O)O)C(=O)N[C@@H](CO)C(=O)N[C@@H](Cc1c[nH]cn1)C(=O)N[C@@H](CCCCN)C(=O)N[C@@H](Cc1c[nH]c2ccccc12)C(=O)N[C@@H](Cc1c[nH]cn1)C(=O)N[C@@H](CCCNC(=N)CCl)C(=O)N[C@@H](CC(=O)O)C(=O)N[C@@H](Cc1ccccc1)C(=O)N[C@@H](Cc1ccccc1)C(=O)N[C@@H](Cc1ccc(O)cc1)C(=O)N[C@@H](CO)C(=O)N[C@@H](CC(=O)O)C(N)=O) [0741-02CA] , what conversion of 0708-30 by PAD2, 50 µM inhibitor is on record?
## Output 32
